# Tested on: CCRIS mutagenicity, Ames/micronucleus/aberration tests
# Experiment summary: CCRIS mutagenicity studies
# Condition parameters: Test System: AMES SALMONELLA TYPHIMURIUM; Strain/Indicator: TA97; Metabolic Activation: NONE; Method: PREINCUBATION
# Description: The CCRIS database contains chemical records with carcinogenicity, mutagenicity, tumor promotion, and tumor inhibition test results. It was developed by the National Cancer Institute (NCI). Data are derived from studies cited in primary journals, current awareness tools, NCI reports, and other sources. Test results have been reviewed by experts in carcinogenesis and mutagenesis. CCRIS provides historical information from the years 1985 - 2011. It is no longer updated. […]
The source made the active and inactive calls. How the calls were made is not given here.
Log the outcome using a class from active, inactive

How was "O=[N+]([O-])O" classified in this test? inactive

Now the same for "Nc1ccccc1C(=O)OC1CCCCC1" inactive

Now the same for "CCCCCCCCCCCCCCCCCCN" inactive

Now the same for "O.O.O.O=C([O-])COc1ccccc1.O=C([O-])COc1ccccc1.[Cu+2]" inactive

Now the same for "Oc1c2c(c3c(ccc4c3ccc3ccc5ccccc5c34)c1O)O2" active

Now the same for "C[C@]12C/C(=C/O)C(=O)C[C@@H]1CC[C@@H]1[C@@H]2CC[C@@]2(C)[C@H]1CC[C@]2(C)O" inactive

Now the same for "C=CCc1ccc2c(c1)OCO2" inactive

Now the same for "Nc1ccc(Br)cc1" inactive

Now the same for "Nc1ccc([N+](=O)[O-])c(N)c1" inactive

Now the same for O=C(c1ccccc1)C(O)c1ccccc1 (configuration not stated) inactive

Now the same for "CCOC(C)(C)C" inactive

Now the same for "CCCOC(=O)c1cc(O)c(O)c(O)c1" inactive

Now the same for "O=c1[nH]c(=O)n([C@H]2C[C@H](O)[C@@H](CO)O2)cc1CCCl" inactive

Now the same for "Clc1ccc(C(c2ccc(Cl)cc2)C(Cl)(Cl)Cl)cc1" inactive

Now the same for "CCCCNC(=O)n1c(NC(=O)OC)nc2ccccc21" inactive

Now the same for "C=CC(=O)NCO" inactive

Now the same for "O=P(OC(CCl)CCl)(OC(CCl)CCl)OC(CCl)CCl" inactive

Now the same for "C=C(C)c1ccccc1" inactive

Now the same for "Clc1cccc(C(Cl)(Cl)Cl)n1" inactive

Now the same for "COC(=O)C1=C(C)NC(C)=C(C(=O)OC)C1c1ccccc1[N+](=O)[O-]" inactive

Now the same for "Cc1cc(-c2cc(C)c(N)c(C)c2)cc(C)c1N" inactive

Now the same for "Nc1ccc(Cl)cc1N" inactive

Now the same for "c1ccc(N2CCNCC2)cc1" inactive

Now the same for "Cc1cccc(N)c1" inactive

Now the same for "CC(=O)Nc1ccc(C)cc1" inactive

Now the same for "CCCCOc1ccc(C=Nc2ccc(CC)cc2)cc1" inactive

Now the same for "CC(C)(C)c1cc(O)ccc1O" inactive

Now the same for "Oc1c(Cl)c(Cl)cc(Cl)c1Cl" inactive

Now the same for "O=C(O)CCC(=O)O" inactive

Now the same for "CCCCCCCCCC" inactive

Now the same for "C[C@H](CCC(=O)O)[C@H]1CC[C@H]2[C@@H]3CC[C@@H]4C[C@H](O)CC[C@]4(C)[C@H]3CC[C@]12C" inactive

Now the same for "CC(C)(C)OOC(C)(C)C" inactive

Now the same for "O=C(O)CC(O)(CC(=O)O)C(=O)O" inactive

Now the same for "[CH3][Hg+]" inactive

Now the same for "CN(C(=O)CN(CCO)CC(=O)N(C)C(C)(C)Cc1ccccc1)C(C)(C)Cc1ccccc1" inactive

Now the same for "Nc1ccc(N)c2c1C(=O)c1c(N)ccc(N)c1C2=O" active

Now the same for "O=C(O)c1ccccc1" inactive

Now the same for "OC1c2ccccc2Oc2ccccc21" active

Now the same for "Clc1cc2c(cc1Cl)Oc1cc(Cl)c(Cl)cc1O2" inactive

Now the same for "c1ccc(COCc2ccccc2)cc1" inactive

Now the same for "Clc1c(Cl)c(Cl)c2c(c1Cl)Oc1c(Cl)c(Cl)c(Cl)c(Cl)c1O2" inactive

Now the same for "CC(=O)Nc1ccc(N=Nc2cc(C)ccc2O)cc1" active

Now the same for "O=C1C=C(S(=O)(=O)O)c2ccccc2C1=O" inactive

Now the same for "C=CC#N" inactive

Now the same for "CCC/C=C(/C=O)CC" inactive

Now the same for "Cc1nccc2c1[nH]c1ccccc12" active

Now the same for "C=C1C/C(=C/C)C(=O)O[C@@H]2CCN3CC=C(COC(=O)[C@]1(C)O)[C@H]23" inactive

Now the same for "NNC(=O)c1[nH]c2ccccc2c1N" active

Now the same for "CC(C)O" inactive

Now the same for "FC(F)(F)c1ccccc1Cl" inactive

Now the same for "CCNc1cc(O)ccc1C" inactive

Now the same for CCCCC(CC)COC(=O)c1ccccc1C(=O)OCC(CC)CCCC (configuration not stated) inactive

Now the same for "CC(C)(C)C1=CC(=O)C=CC1=O" inactive

Now the same for "Nc1ccccc1C(=O)OC/C=C/c1ccccc1" inactive

Now the same for "O=Cc1ccccc1Cl" inactive

Now the same for "COC1=CC(=O)C[C@@H](C)[C@]12Oc1c(Cl)c(OC)cc(OC)c1C2=O" inactive

Now the same for C[C@@H]1Cc2c(Cl)cc(C(=O)NC(Cc3ccccc3)C(=O)O)c(O)c2C(=O)O1 (some centres not stated) inactive

These entries and their values trace back to PubChem BioAssay AID1259407.
